system: MS2 coat protein; test: apparent KD of MS2 coat protein, switch ON state; designed switch direction (-1 OFF switch, 1 ON switch): 1; higher = weaker reporter binding; settings: FMN input: 0 or 200 uM; Eterna round: R93 (includes R88 designs)
Label MET when apparent KD of MS2 coat protein is at or above 30 nM; anything below gets NOT MET.

In [3]: df
Out[3]:
                             entry_sequence    group
0  AAAGACAUAGUUCAGGAUAUGGUAAUAGUCACAUGAGGAUCACCCAUGUUCAUUUAUAUGAGCGAUCAGAAGGGAGGUAAAAAAA [SameState2 Malc#15]      MET
1  AAAAUAUAAAGGAAGGAUAUCCAAAGGACUACAUGAGGAUCACCCAUGUAAAGAAAGAAUAAGUGGGAGAAGGUCCAAAUAAUAA [Designing denovo 31]  NOT MET
2  AUCUAACAUGAGGAUCACCCAUGUAUUCAAAAACAAGGAUAUAUAACAAACAAACAACAAAUAGAAGGUGUAAAUA [Default title]  NOT MET
3  GAUAGACAUGAGGAUCACCCAUGUAGAAUUAUGGGAGGAUAUACAAAGACGAGAGUCAGAGUAGAAGGCCUAGGAG [salish99-ss1-158]  NOT MET
4  AAAGUACAUGAGGAUCACCCAUGUUGGAACAAAGCAGGAUAUGUACAAAAGGAAAUAAAUACAGAAGGGCUAAGAA [Same State #2]  NOT MET
5  AGGAAACAUGAGGAUCACCCAUGUAAAAAUAUGGGAGGAUAUGCGAAAAGAAACAAAGAAGCAGAAGGCCUAAGAA [75%, Ex5 sub 1, 7]  NOT MET
